System: SN12C renal
Assay: NCI tumour cell line growth inhibition, 48 h; in the data active = GI50 below about 0.43 µM; inactive = the rest
Permitted responses: active, inactive

// query Each compound tested received a call. Report the one for `CN(C)c1ccc(-c2cc(-c3ccc(Nc4nc(Nc5ccccc5)nc(Nc5ccc(Cl)cc5)n4)cc3)nc(N)n2)cc1` .
// result inactive

// query Each compound tested received a call. Report the one for `O=C(CCCCCCSc1nc(-c2ccccc2)cc(-c2ccccc2)n1)NO` .
// result inactive

// query Each compound tested received a call. Report the one for `O=C1/C(=C/c2ccc([N+](=O)[O-])o2)Oc2ccc(Br)cc21` .
// result inactive

// query Each compound tested received a call. Report the one for CC(CN1CCN(C)CC1)CN1c2ccccc2Sc2ccc(C(F)(F)F)cc21 (centres undefined) .
// result inactive

// query Each compound tested received a call. Report the one for `Cn1c(=O)c(Oc2ccc(F)cc2F)cc2cnc(NC(CO)CO)nc21` .
// result inactive

// query Each compound tested received a call. Report the one for CCCCCCCCCCC(O)[C@H]1CCC(C2CC[C@H]([C@H](O)CCCCCCCCCCC(O)CC3=CC(C)OC3=O)O2)O1 (some centres undefined) .
// result inactive

// query Each compound tested received a call. Report the one for `Cc1nc2cnc3cc(F)c(-c4ccc(Oc5ncccn5)cc4Cl)cc3c2n1[C@H]1CCN(C(=O)CO)C[C@@H]1F` .
// result inactive

// query Each compound tested received a call. Report the one for `COc1ccn2c(C(C)=O)cc(C(=O)c3ccc4c(c3)Sc3ccccc3N4)c2c1` .
// result active

// query Each compound tested received a call. Report the one for `Cc1ccc(/C=C2/SC(Nc3nc(-c4nc(NC5=NC(=O)/C(=C\c6ccc(C)cc6)S5)sc4C)c(C)s3)=NC2=O)cc1` .
// result inactive

###

System: NCI-H226 lung
Assay: NCI tumour cell line growth inhibition, 48 h
QUANTITY MEASURED: TGI

// query So what does the record say about TGI for `CC(=O)NCCSC(=O)c1ccccc1` ?
// result 0.413 µM

// query So what does the record say about TGI for `COc1ccc(C(=O)c2sc(Nc3ccccc3)nc2N)cc1` ?
// result > 100 µM

// query So what does the record say about TGI for `Cn1c(=O)c(Oc2ccc(F)cc2F)cc2cnc(NC(CO)CO)nc21` ?
// result > 25 µM

// query So what does the record say about TGI for `Cc1nc2sc(C(=O)Nc3cccc4ccccc34)c(N)c2cc1C(=O)/C=C/c1ccccc1` ?
// result 1.56 µM

// query So what does the record say about TGI for `COc1ccc(-c2cnnn2-c2cc(OC)c3c(c2)OCO3)cc1` ?
// result > 100 µM

// query So what does the record say about TGI for `O=c1[nH]nc2ccccc2c1Cl` ?
// result 52.8 µM

###

System: HL-60(TB) leukemia
Assay: NCI tumour cell line growth inhibition, 48 h
Assignment: determine reported TGI for the given molecules.

// query Request - read-out TGI | tested on HL-60(TB) leukemia | molecule `Cc1ccc(/C=C2/SC(Nc3nc(-c4nc(NC5=NC(=O)/C(=C\c6ccc(C)cc6)S5)sc4C)c(C)s3)=NC2=O)cc1`
// result > 50 µM

// query Request - read-out TGI | tested on HL-60(TB) leukemia | molecule `Cn1c(=O)c(Oc2ccc(F)cc2F)cc2cnc(NC(CO)CO)nc21`
// result > 25 µM

// query Request - read-out TGI | tested on HL-60(TB) leukemia | molecule `CN(CC(=O)O)c1ccc(/C=C/c2ccnc3ccccc23)cc1`
// result 48.2 µM

// query Request - read-out TGI | tested on HL-60(TB) leukemia | molecule CCOP1(=O)C=C(Sc2ccc([N+](=O)[O-])cc2[N+](=O)[O-])C(C)(C)O1 (stereo not given)
// result 77.3 µM

// query Request - read-out TGI | tested on HL-60(TB) leukemia | molecule `COc1ccc(C(=O)/C=C/c2c(C(F)(F)F)nc3sccn23)cc1OC`
// result 3.86 µM

// query Request - read-out TGI | tested on HL-60(TB) leukemia | molecule `CCCCNc1c(CN)cnc2cc(Cl)ccc12`
// result 3.92 µM

// query Request - read-out TGI | tested on HL-60(TB) leukemia | molecule Nc1ccc(C2NC(=O)Cc3c2ccc2ccccc32)cc1 (stereo not given)
// result > 100 µM

// query Request - read-out TGI | tested on HL-60(TB) leukemia | molecule CCc1cccc2c3c(sc12)C(c1ccc(Cl)cc1)C(C#N)=C(N)O3 (stereo not given)
// result 9.48 µM

// query Request - read-out TGI | tested on HL-60(TB) leukemia | molecule `O=c1[nH]/c(=C/c2ccc(OCc3ccccc3)cn2)c(=O)[nH]/c1=C/c1ccc(Cl)cc1`
// result > 40.2 µM

// query Request - read-out TGI | tested on HL-60(TB) leukemia | molecule `COc1cc(-c2c(C#N)c(N)c(C#N)c3c2COc2ccccc2-3)cc(OC)c1OC`
// result > 100 µM

###

Assignment: determine reported TGI for the given compounds.
Test system: 786-0 renal
Assay: NCI tumour cell line growth inhibition, 48 h
# value in µM; strip the unit string

// query So what does the record say about TGI for `CCOP(=O)(OCC)/C(C#N)=C/c1ccc(-c2ccc(F)cc2F)o1` ?
// result 27.4

// query So what does the record say about TGI for `Cc1ccc(NC(=O)c2cc3ccccc3c(N=Nc3ccccc3O)c2O)c(C)c1` ?
// result 11.8

// query So what does the record say about TGI for `Cc1ccc(/C=C2/SC(Nc3nc(-c4nc(NC5=NC(=O)/C(=C\c6ccc(C)cc6)S5)sc4C)c(C)s3)=NC2=O)cc1` ?
// result 8.4

// query So what does the record say about TGI for `O=C1C=C[C@@]23C[C@@H](Nc4c(O)c5c6c(c42)=NCCC=6C=N5)SC3=C1` ?
// result 14.6

###

Tested on: SK-OV-3 ovarian
Assay: NCI tumour cell line growth inhibition, 48 h
QUANTITY MEASURED: TGI

// query So what does the record say about TGI for `N#Cc1c(N)nc(N2CCOCC2)c(C#N)c1-c1ccc(Cl)cc1` ?
// result > 100 µM

// query So what does the record say about TGI for `NC(=O)c1oc([N+](=O)[O-])c(-c2ccccc2)c1-c1ccccc1` ?
// result > 100 µM

// query So what does the record say about TGI for `COc1cc2nc(-c3cccs3)nc(N3C(c4ccc(O)cc4)=NNC(=O)c4ccccc43)c2cc1OC` ?
// result > 100 µM

// query So what does the record say about TGI for `N=c1c2c(-c3ccccc3)c(-c3ccccc3)n(Cc3ccccc3)c2ncn1CCCO` ?
// result 17.9 µM

// query So what does the record say about TGI for `CS(=O)(=O)c1ccc(-c2cnc(N)c(C(=O)Nc3ccccc3)n2)cc1` ?
// result > 100 µM

// query So what does the record say about TGI for `C/C(=N\NC(=S)NC1CCCC1)c1ccccn1` ?
// result > 100 µM

// query So what does the record say about TGI for `O=Cc1cn(Cc2cccc(Cl)c2)c2ccccc12` ?
// result 16 µM

// query So what does the record say about TGI for `CN=CN(C)c1c2ccccc2nc2ccccc12` ?
// result > 100 µM

// query So what does the record say about TGI for `Cn1ccc2c(c1=O)C(=O)c1nccc3c1c-2nc1ccccc13` ?
// result 3.15 µM

// query So what does the record say about TGI for `COC(=O)[C@@H](O)[C@]1(C(=O)OC)C2O[C@@H](OC)[C@@H]1CCCCCC[C@H]2O` ?
// result > 100 µM

// query So what does the record say about TGI for CC(C)(C)[Si](C)(C)OCC1OC(n2ccc(=O)[nH]c2=O)C(O[Si](C)(C)C(C)(C)C)[C@@]12O[C@H]2C(N)=O (stereo not given in full) ?
// result 36.6 µM

// query So what does the record say about TGI for `O/N=C/c1cc2c(cc1Br)OCO2` ?
// result > 100 µM

// query So what does the record say about TGI for COc1cc(/C=C/C(=O)OC2C(O)C3CC(OC(=O)c4cc(OC)c(OC)c(OC)c4)CC2N3C)cc(OC)c1OC (stereo not given) ?
// result > 50 µM

// query So what does the record say about TGI for `N#Cc1c2cccnc2c2nnc3cc(Cl)c(Cl)cc3n12` ?
// result > 100 µM

// query So what does the record say about TGI for `CCN(CCCN(CC)C(=O)Nc1ccccc1)C(=O)Nc1ccccc1` ?
// result > 100 µM

###

Assignment: determine reported TGI for the given molecules.
Test system: NCI-H226 lung
Test: NCI tumour cell line growth inhibition, 48 h
# value in µM; strip the unit string

// query So what does the record say about TGI for `N=c1c2c(-c3ccccc3)c(-c3ccccc3)n(Cc3ccccc3)c2ncn1CCCO` ?
// result 12.9

// query So what does the record say about TGI for `CS/C(=N\C(=S)Nc1ccccc1)Nc1ccccc1` ?
// result 70.5

// query So what does the record say about TGI for `CCN1CN(c2ccccc2)C2(CCN(CCCSc3ccc(F)cc3)CC2)C1=O` ?
// result 33.7

// query So what does the record say about TGI for `NC(=O)NO` ?
// result 2120

// query So what does the record say about TGI for `O=C(/C=C/c1ccc(Cl)c(Cl)c1)c1ccc(F)cc1` ?
// result 92.6
